test: NCI Yeast Anticancer Drug Screen. Data for the rad14 strain (AID 159);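 note: 0% = growth of vehicle-treated control cultures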; conditions: S. cerevisiae rad14 strain growth inhibition; at 1.2 µM; hits give high values
This is part of a sample that, as a whole, favours compounds with a hit. Of some 79,000 tested, about 15% had one in any assay.
Overview of reported growth inhibition across a group of compounds:
API: value field is a number in %; no unit string.

Before answering, review these 6 worked examples.
Nc1ccc(F)cc1S :: -32
O=C(NNc1ccccc1)C(O)C(O)C(O)C(O)C(O)CO (stereo not drawn) :: 0
COc1cc2ccnc(-c3c4ccccc4c(N)c4c(OC)c(OC)ccc34)c2cc1OC :: 1
Cc1ccc(Cl)cc1NC(=O)OCCN(C)C(=O)Nc1cc(Cl)ccc1C :: -26
CCCCCCSc1ncnc2[nH]ncc12 :: -2
COc1cc(CSc2ccc(O)cc2)cc(O)c1O :: 1

Recorded growth inhibition (compound CC(=O)ON=C1C=CC(=C(C#N)c2ccc(Cl)cc2)C=C1 ): -3

Recorded growth inhibition (compound S=C1SCN(C2CCCCC2)CN1C1CCCCC1 ): -31
